System: synaptic benzodiazepine-sensitive receptors (BZR), GABAAR
Assay: 3H-flunitrazepam binding, rat brain homogenate
Settings: at 10,000 nM
Assay Readout: BZR % (percent inhibition) (%)
I only need the number, in %, no unit after it.

QUERY: Could you tell me which BZR % (percent inhibition) is on file for Cc1noc(-c2ncn3c2[C@@H](C)N=C(c2ccccc2F)c2cc(C4CC4)ccc2-3)n1 [GL-III-63] ?
RESULT: 28

QUERY: Then this molecule: C#Cc1ccc2c(c1)C(c1ccccc1F)=N[C@H](C)c1c(C(=O)OCC)ncn1-2 [SH-053-2′F-R-CH3]
RESULT: 85

QUERY: Then this molecule: C#Cc1ccc2c(c1)C(c1ccccn1)=N[C@H](C)c1c(-c3nc(CC)no3)ncn1-2 [GL-II-54]
RESULT: 66
